# Tested on: NCI-H1993
# test method notes: relative viability (nuclei count vs DMSO), 5 days (fraction); higher = more cells survive
# measurement parameters: first compound 0.06325 µM
For each entry below, report its relative viability value.
Answers are plain numbers.

CCNC(=O)c1noc(-c2cc(C(C)C)c(O)cc2O)c1-c1ccc(CN2CCOCC2)cc1 [Luminespib] + CC(=O)c1c(C)c2cnc(Nc3ccc(N4CCNCC4)cn3)nc2n(C2CCCC2)c1=O [Palbociclib] (partner 0.5 µM) : 0.716

## Input May I ask what relative viability has been recorded for CCNC(=O)c1noc(-c2cc(C(C)C)c(O)cc2O)c1-c1ccc(CN2CCOCC2)cc1 [Luminespib] + Cc1cc(Nc2cc(N3CCN(C)CC3)nc(Sc3ccc(NC(=O)C4CC4)cc3)n2)n[nH]1 [Tozasertib] (partner 0.1 µM) ?
## Output 0.5

###

# Test system: NCI-H2023
# test method notes: relative viability (nuclei count vs DMSO), 5 days (fraction); higher = more cells survive
# measurement parameters: first compound 0.002 µM
For each entry below, report its relative viability value.
Give bare numbers.

CCNC(=O)c1noc(-c2cc(C(C)C)c(O)cc2O)c1-c1ccc(CN2CCOCC2)cc1 [Luminespib] + O=C(CCCCCCC(=O)Nc1ccccc1)NO [Vorinostat] (partner 1 µM) : 0.7
CCNC(=O)c1noc(-c2cc(C(C)C)c(O)cc2O)c1-c1ccc(CN2CCOCC2)cc1 [Luminespib] + CC(=O)Nc1cccc(-n2c(=O)n(C3CC3)c(=O)c3c(Nc4ccc(I)cc4F)n(C)c(=O)c(C)c32)c1 [Trametinib] (partner 0.02 µM) : 0.49

Hi team, please reply with relative viability for each item in this list.
1. CCNC(=O)c1noc(-c2cc(C(C)C)c(O)cc2O)c1-c1ccc(CN2CCOCC2)cc1 [Luminespib] + Cc1nc(NC(=O)N2CCC[C@H]2C(N)=O)sc1-c1ccnc(C(C)(C)C(F)(F)F)c1 [Alpelisib] (partner 2 µM)
2. CCNC(=O)c1noc(-c2cc(C(C)C)c(O)cc2O)c1-c1ccc(CN2CCOCC2)cc1 [Luminespib] + C[C@]1(O)C[C@@H](c2nc(-c3ccc4ccc(-c5ccccc5)nc4c3)c3c(N)nccn32)C1 [Linsitinib] (partner 1 µM)
3. CCNC(=O)c1noc(-c2cc(C(C)C)c(O)cc2O)c1-c1ccc(CN2CCOCC2)cc1 [Luminespib] + Cc1nc(Nc2ncc(C(=O)Nc3c(C)cccc3Cl)s2)cc(N2CCN(CCO)CC2)n1 [Dasatinib] (partner 0.075 µM)

## Output
[0.59, 0.652, 0.589]

###

# System: NCI-H2085
# test method notes: relative viability (nuclei count vs DMSO), 5 days (fraction); higher = more cells survive
# measurement parameters: first compound 2.53 µM
readout kind: relative viability
One number for each entry.

Nc1cccc2c1CN(C1CCC(=O)NC1=O)C2=O (stereo not drawn) [Lenalidomide] + CC1(C)CCC(c2ccc(Cl)cc2)=C(CN2CCN(c3ccc(C(=O)NS(=O)(=O)c4ccc(N[C@H](CCN5CCOCC5)CSc5ccccc5)c(S(=O)(=O)C(F)(F)F)c4)cc3)CC2)C1 [Navitoclax] (partner 0.5 µM) : 1.26

Would you mind listing relative viability for each of the following molecules?
1. Nc1cccc2c1CN(C1CCC(=O)NC1=O)C2=O (stereo not drawn) [Lenalidomide] + C[C@]1(O)C[C@@H](c2nc(-c3ccc4ccc(-c5ccccc5)nc4c3)c3c(N)nccn32)C1 [Linsitinib] (partner 1 µM)
2. Nc1cccc2c1CN(C1CCC(=O)NC1=O)C2=O (stereo not drawn) [Lenalidomide] + N=C(N)NC(=N)NCCc1ccccc1 [Phenformin] (partner 250 µM)

## Output
1: 1.03; 2: 0.827

###

# Tested on: NCI-H2023
# test method notes: relative viability (nuclei count vs DMSO), 5 days (fraction); higher = more cells survive
# measurement parameters: first compound 0.2 µM
readout kind: relative viability
One number for each entry.

Cc1csc(=NC2CCCCC2)n1/N=C/c1ccc(O)c(O)c1O [MIM1] + Nc1ncn([C@H]2C[C@H](O)[C@@H](CO)O2)c(=O)n1 [Decitabine] (partner 2 µM) : 0.24
CN1CCN(CCOc2cc(OC3CCOCC3)c3c(Nc4c(Cl)ccc5c4OCO5)ncnc3c2)CC1 [Saracatinib] + CC(=O)Nc1cccc(-n2c(=O)n(C3CC3)c(=O)c3c(Nc4ccc(I)cc4F)n(C)c(=O)c(C)c32)c1 [Trametinib] (partner 0.02 µM) : 0.269
CN1CCN(CCOc2cc(OC3CCOCC3)c3c(Nc4c(Cl)ccc5c4OCO5)ncnc3c2)CC1 [Saracatinib] + Cc1nc(Nc2ncc(C(=O)Nc3c(C)cccc3Cl)s2)cc(N2CCN(CCO)CC2)n1 [Dasatinib] (partner 0.075 µM) : 0.651

Can you give me relative viability for all of these, one by one?
1. Cc1csc(=NC2CCCCC2)n1/N=C/c1ccc(O)c(O)c1O [MIM1] + CC1(C)CCC(c2ccc(Cl)cc2)=C(CN2CCN(c3ccc(C(=O)NS(=O)(=O)c4ccc(N[C@H](CCN5CCOCC5)CSc5ccccc5)c(S(=O)(=O)C(F)(F)F)c4)cc3)CC2)C1 [Navitoclax] (partner 0.5 µM)
2. CCNC(=O)c1noc(-c2cc(C(C)C)c(O)cc2O)c1-c1ccc(CN2CCOCC2)cc1 [Luminespib] + N=C(N)NC(=N)NCCc1ccccc1 [Phenformin] (partner 250 µM)
3. Cc1csc(=NC2CCCCC2)n1/N=C/c1ccc(O)c(O)c1O [MIM1] + CS(=O)(=O)CCNCc1ccc(-c2ccc3ncnc(Nc4ccc(OCc5cccc(F)c5)c(Cl)c4)c3c2)o1 [Lapatinib] (partner 2 µM)
4. CCNC(=O)c1noc(-c2cc(C(C)C)c(O)cc2O)c1-c1ccc(CN2CCOCC2)cc1 [Luminespib] + COc1cccc2cc(-c3nc([C@H]4CC[C@H](C(=O)O)CC4)n4ncnc(N)c34)[nH]c12 [OSI-027] (partner 0.5 µM)
5. CCNC(=O)c1noc(-c2cc(C(C)C)c(O)cc2O)c1-c1ccc(CN2CCOCC2)cc1 [Luminespib] + CC1(C)CCC(c2ccc(Cl)cc2)=C(CN2CCN(c3ccc(C(=O)NS(=O)(=O)c4ccc(N[C@H](CCN5CCOCC5)CSc5ccccc5)c(S(=O)(=O)C(F)(F)F)c4)cc3)CC2)C1 [Navitoclax] (partner 0.5 µM)

## Output
1. 0.992
2. 0.0658
3. 0.947
4. 0.0624
5. 0.0995

###

# Tested on: NCI-H727
# test method notes: relative viability (nuclei count vs DMSO), 5 days (fraction); higher = more cells survive
# measurement parameters: first compound 0.02 µM
What relative viability was measured for each of the following?
One number for each entry.

Look over these answered cases.
CCNC(=O)c1noc(-c2cc(C(C)C)c(O)cc2O)c1-c1ccc(CN2CCOCC2)cc1 [Luminespib] + NC(=O)Nc1cc(-c2cccc(F)c2)sc1C(=O)N[C@H]1CCCNC1 [AZD7762] (partner 0.2 µM) : 0.57
CN1CCN(CCOc2cc(OC3CCOCC3)c3c(Nc4c(Cl)ccc5c4OCO5)ncnc3c2)CC1 [Saracatinib] + CCNC(=O)c1noc(-c2cc(C(C)C)c(O)cc2O)c1-c1ccc(CN2CCOCC2)cc1 [Luminespib] (partner 0.01 µM) : 0.242

Give relative viability for each listed item.
1. CCNC(=O)c1noc(-c2cc(C(C)C)c(O)cc2O)c1-c1ccc(CN2CCOCC2)cc1 [Luminespib] + COc1cc2c(Oc3ccc(NC(=O)C4(C(=O)Nc5ccc(F)cc5)CC4)cc3F)ccnc2cc1OCCCN1CCOCC1 [Foretinib] (partner 0.25 µM)
2. CN1CCN(CCOc2cc(OC3CCOCC3)c3c(Nc4c(Cl)ccc5c4OCO5)ncnc3c2)CC1 [Saracatinib] + COc1cc2c(Oc3ccc(NC(=O)C4(C(=O)Nc5ccc(F)cc5)CC4)cc3F)ccnc2cc1OCCCN1CCOCC1 [Foretinib] (partner 0.25 µM)
3. CN1CCN(CCOc2cc(OC3CCOCC3)c3c(Nc4c(Cl)ccc5c4OCO5)ncnc3c2)CC1 [Saracatinib] + N=C(N)NC(=N)NCCc1ccccc1 [Phenformin] (partner 250 µM)
4. CN1CCN(CCOc2cc(OC3CCOCC3)c3c(Nc4c(Cl)ccc5c4OCO5)ncnc3c2)CC1 [Saracatinib] + CC(=O)c1c(C)c2cnc(Nc3ccc(N4CCNCC4)cn3)nc2n(C2CCCC2)c1=O [Palbociclib] (partner 0.5 µM)
5. CN1CCN(CCOc2cc(OC3CCOCC3)c3c(Nc4c(Cl)ccc5c4OCO5)ncnc3c2)CC1 [Saracatinib] + Cc1nc(NC(=O)N2CCC[C@H]2C(N)=O)sc1-c1ccnc(C(C)(C)C(F)(F)F)c1 [Alpelisib] (partner 2 µM)
6. CN1CCN(CCOc2cc(OC3CCOCC3)c3c(Nc4c(Cl)ccc5c4OCO5)ncnc3c2)CC1 [Saracatinib] + Cc1cc(Nc2cc(N3CCN(C)CC3)nc(Sc3ccc(NC(=O)C4CC4)cc3)n2)n[nH]1 [Tozasertib] (partner 0.1 µM)
7. CN1CCN(CCOc2cc(OC3CCOCC3)c3c(Nc4c(Cl)ccc5c4OCO5)ncnc3c2)CC1 [Saracatinib] + CC1(C)CCC(c2ccc(Cl)cc2)=C(CN2CCN(c3ccc(C(=O)NS(=O)(=O)c4ccc(N[C@H](CCN5CCOCC5)CSc5ccccc5)c(S(=O)(=O)C(F)(F)F)c4)cc3)CC2)C1 [Navitoclax] (partner 0.5 µM)

## Output
1: 0.669; 2: 0.814; 3: 0.535; 4: 0.604; 5: 0.558; 6: 0.618; 7: 0.499

## Input What relative viability appears in the records for this molecule with NCI-H727? CCNC(=O)c1noc(-c2cc(C(C)C)c(O)cc2O)c1-c1ccc(CN2CCOCC2)cc1 [Luminespib] + C[C@]1(O)C[C@@H](c2nc(-c3ccc4ccc(-c5ccccc5)nc4c3)c3c(N)nccn32)C1 [Linsitinib] (partner 1 µM)
## Output 0.284
